Test system: Streptococcus sp. 'group A'
experiment: growth inhibition of control SK(-) GAS strain, dose response, counter-screen for streptokinase expression inhibitor project, luminescence, kanamycin, BacTiterGlo, confirmation (AID 1900)
Format: functional, organism-based
assay-context: Streptococcus sp. 'group A'
Active and inactive are the calls of the source.
readout-type: EC50

Consider the worked cases shown below.
CCN(CC)c1ccc(/C=N/C(C#N)=C(\N)C#N)cc1 = > 150 µM (not active)
O=C(Nc1cccc(-c2ccc(N3CCOCC3)nn2)c1)c1ccccc1Cl = > 150 µM (not active)
O=C(Nc1nc(-c2ccc3c(c2)OCCO3)cs1)c1ccco1 = 20.1 µM (active)
Cc1ccc(C(O)(C(=O)NNc2ccc3ccccc3n2)c2ccc(C)cc2)cc1 = 3.72 µM (active)

Which EC50 is reported with Streptococcus sp. 'group A' for this entry: Cn1ccc(=Nc2ccc(NC(=O)c3ccc(/N=c4\ccn(C)c5ccc([N+](=O)[O-])cc45)cc3)cc2)cc1 ?
0.976 µM (active)

Which EC50 is reported with Streptococcus sp. 'group A' for this entry: Cc1cccc(C)c1Nc1c(-c2ccccn2)nc2ccccn12 ?
2.52 µM (active)

* * *

target-or-test-system: UniProtKB P31422
Sequence (P31422 whole entry): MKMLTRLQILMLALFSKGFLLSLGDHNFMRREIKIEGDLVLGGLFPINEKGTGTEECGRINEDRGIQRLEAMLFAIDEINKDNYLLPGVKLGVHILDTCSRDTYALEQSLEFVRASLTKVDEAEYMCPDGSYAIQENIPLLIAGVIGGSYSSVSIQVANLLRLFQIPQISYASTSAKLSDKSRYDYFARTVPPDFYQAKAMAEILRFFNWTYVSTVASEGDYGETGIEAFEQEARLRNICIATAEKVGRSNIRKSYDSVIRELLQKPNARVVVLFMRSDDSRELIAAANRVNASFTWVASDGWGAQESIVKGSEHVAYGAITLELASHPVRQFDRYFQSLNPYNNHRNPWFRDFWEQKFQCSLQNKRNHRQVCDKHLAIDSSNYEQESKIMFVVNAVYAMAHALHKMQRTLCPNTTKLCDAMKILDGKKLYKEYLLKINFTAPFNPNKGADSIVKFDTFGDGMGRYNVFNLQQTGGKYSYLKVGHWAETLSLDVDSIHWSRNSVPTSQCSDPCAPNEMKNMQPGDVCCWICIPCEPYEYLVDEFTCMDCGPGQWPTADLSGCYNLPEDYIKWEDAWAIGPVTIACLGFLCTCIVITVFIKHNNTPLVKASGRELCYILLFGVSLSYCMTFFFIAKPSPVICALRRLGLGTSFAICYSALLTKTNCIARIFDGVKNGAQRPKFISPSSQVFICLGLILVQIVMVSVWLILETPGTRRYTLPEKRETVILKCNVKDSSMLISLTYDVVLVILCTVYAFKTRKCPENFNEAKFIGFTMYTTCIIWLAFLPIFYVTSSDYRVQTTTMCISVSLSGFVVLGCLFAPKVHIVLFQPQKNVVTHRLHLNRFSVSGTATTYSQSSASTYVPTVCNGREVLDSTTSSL
experiment: mGlu3 negative allosteric modulator potency, dose response, HEK/GIRK cells, thallium flux, rat (AID 651839)
readout-type: IC50 (µM)
Just the number please, in µM, no unit attached.

Any idea what IC50 was measured for COc1ccc(C#Cc2ccc(C(=O)N3CCC[C@@H](O)C3)cc2)c(F)c1 ?
4.29

* * *

experiment: P. falciparum Dd2 growth inhibitors, dose response, SYBR Green, cherry-picked samples (AID 1159567)
Assay type: functional, cell-based
The source made the active and inactive calls.
readout-type: AC50

Consider the worked cases shown below.
COc1ccc2c3c([nH]c2c1)[C@@H](CO)N(Cc1ccccc1F)CC31CCN(C(=O)C2CCOCC2)CC1 = 6.46 µM (active)
COc1ccc(S(=O)(=O)N[C@@H]2CC[C@H](CCn3cc(-c4ccccc4F)nn3)O[C@@H]2CO)cc1 = 8.67 µM (active)
OC[C@@H]1[C@H](c2ccc(-c3ccc(F)cc3)cc2)[C@H](CNC2CCCC2)N1CCC(F)(F)F = 2.51 µM (active)
CO[C@@H]1CN(C)C(=O)c2ccc(NC(=O)Nc3ccccc3F)cc2OC[C@@H](C)N(CCC(F)(F)F)C[C@H]1C = 1.57 µM (active)

Read the next record carefully.
Any idea what AC50 was measured for c1ccc(CN2C[C@@H]3N[C@H](C2)[C@@H]3c2ccc(-c3ccncc3)cc2)cc1 ?
2.35 µM (active)

* * *

IC50 by entry:
target-or-test-system: Disintegrin and metalloproteinase domain-containing protein 17 (Homo sapiens, UniProt P78536)
Sequence (P78536 whole entry, the tested form may be a part): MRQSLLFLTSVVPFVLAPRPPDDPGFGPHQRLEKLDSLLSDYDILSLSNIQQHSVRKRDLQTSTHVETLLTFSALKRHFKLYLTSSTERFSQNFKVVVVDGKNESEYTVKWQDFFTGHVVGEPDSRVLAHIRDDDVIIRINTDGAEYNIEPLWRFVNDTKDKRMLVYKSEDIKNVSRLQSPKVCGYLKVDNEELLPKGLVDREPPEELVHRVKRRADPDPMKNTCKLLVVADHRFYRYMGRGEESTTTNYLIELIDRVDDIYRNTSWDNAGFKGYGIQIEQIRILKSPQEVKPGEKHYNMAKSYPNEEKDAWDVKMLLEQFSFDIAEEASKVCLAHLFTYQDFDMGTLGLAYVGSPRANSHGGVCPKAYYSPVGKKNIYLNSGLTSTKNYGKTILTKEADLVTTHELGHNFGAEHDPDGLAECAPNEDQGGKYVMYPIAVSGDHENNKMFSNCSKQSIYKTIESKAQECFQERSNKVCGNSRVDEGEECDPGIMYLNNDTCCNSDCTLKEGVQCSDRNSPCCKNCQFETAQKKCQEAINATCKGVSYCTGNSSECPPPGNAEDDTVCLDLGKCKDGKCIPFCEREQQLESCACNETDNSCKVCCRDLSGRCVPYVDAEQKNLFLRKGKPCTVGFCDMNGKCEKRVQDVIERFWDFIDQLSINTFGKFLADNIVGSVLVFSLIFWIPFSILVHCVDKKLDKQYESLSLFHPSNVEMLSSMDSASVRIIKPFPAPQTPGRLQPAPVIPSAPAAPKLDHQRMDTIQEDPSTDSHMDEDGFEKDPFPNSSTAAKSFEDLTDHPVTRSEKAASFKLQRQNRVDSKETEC
experiment: exosite inhibitors of ADAM17, dose response, biochemical (AID 743260)
Active and inactive are the calls of the source.

Consider the worked cases shown below.
S=c1[nH]nc(-c2sccc2OCc2ccc(Cl)cc2Cl)[nH]1 = > 69.5 µM (inactive)
CCCn1c(CCNc2nc(-c3cccc(Br)c3)cs2)nc2ccccc21 = > 69.6 µM (inactive)
COC(=O)c1ccc(CN2C(=O)C(C)N(C(=O)c3c(F)cccc3F)c3ccccc32)cc1 (centres undefined) = > 69.5 µM (inactive)

Read the next record carefully.
Any idea what IC50 was measured for COC(=O)C1=C(C)N(Cc2ccc(Br)cc2)C(=S)NC1c1ccc(F)cc1 (centres undefined) ?
> 69.6 µM (inactive)

* * *

target-or-test-system: Cytochrome P450 1A2 (Homo sapiens);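 also: PubChem cytochrome P450 panel assay, CYP1A2 panel member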
Sequence (P05177 whole entry): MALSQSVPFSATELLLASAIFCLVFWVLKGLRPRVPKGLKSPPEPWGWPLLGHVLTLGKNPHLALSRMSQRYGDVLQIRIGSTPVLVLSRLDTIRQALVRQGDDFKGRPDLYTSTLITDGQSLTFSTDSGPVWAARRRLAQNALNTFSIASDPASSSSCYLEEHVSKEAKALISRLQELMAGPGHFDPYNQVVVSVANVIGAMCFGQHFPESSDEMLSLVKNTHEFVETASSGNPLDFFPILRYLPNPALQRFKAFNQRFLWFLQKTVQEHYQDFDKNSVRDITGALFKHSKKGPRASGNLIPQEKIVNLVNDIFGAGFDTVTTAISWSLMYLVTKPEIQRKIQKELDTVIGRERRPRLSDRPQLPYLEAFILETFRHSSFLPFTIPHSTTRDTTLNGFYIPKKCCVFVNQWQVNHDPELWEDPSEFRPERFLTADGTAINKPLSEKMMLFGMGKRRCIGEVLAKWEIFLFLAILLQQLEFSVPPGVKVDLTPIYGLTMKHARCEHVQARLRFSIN
readout-type: AC50

Consider the worked cases shown below.
Cc1cnn(CCC(=O)NN=C(S)Nc2cccc(Cl)c2)c1 = 15.8 µM (inconclusive)
Cc1onc(O)c1CC[C@H](N)C(=O)O = 39.8 µM (inconclusive)
O=C(/C=C\c1ccc(O)c(O)c1)O[C@@H](Cc1ccc(O)c(O)c1)C(=O)O = 25.1 µM (inconclusive)
Nc1nc(N)c(/N=N\c2ccc([As](=O)(O)O)c(O)c2)c(N)n1 = 6.31 µM (inconclusive)
COc1ccc(NC(=S)Nc2ccccc2)cc1 = 1.26 µM (inconclusive)

Read the next record carefully.
Which AC50 is reported with Cytochrome P450 1A2 (Homo sapiens) for this entry: NC1(C(=O)O)CC(C(=O)O)C1 (configuration not stated) ?
39.8 µM (inconclusive)

* * *

target-or-test-system: Glyceraldehyde-3-phosphate dehydrogenase (Homo sapiens)
Sequence (P04406 whole entry): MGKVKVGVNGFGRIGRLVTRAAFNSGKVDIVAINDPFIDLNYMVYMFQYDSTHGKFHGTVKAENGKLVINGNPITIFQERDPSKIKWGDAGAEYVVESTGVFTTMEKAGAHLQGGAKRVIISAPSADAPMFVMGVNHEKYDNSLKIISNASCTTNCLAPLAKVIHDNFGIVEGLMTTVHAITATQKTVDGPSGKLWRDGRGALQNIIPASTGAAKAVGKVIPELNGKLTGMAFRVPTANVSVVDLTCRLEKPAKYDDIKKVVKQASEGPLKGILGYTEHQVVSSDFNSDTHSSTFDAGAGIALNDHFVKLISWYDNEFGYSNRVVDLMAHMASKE
IC50 by entry:

Consider the worked cases shown below.
C[C@H]1CN(C2=C(Cl)C(=O)N(c3ccc(C(F)(F)F)cc3)C2=O)CCN1 = > 50 µM (inconclusive)
O=C1C(Cl)=C(N2CCN(Cc3ccc4c(c3)OCO4)CC2)C(=O)N1c1ccc(Cl)nc1 = > 50 µM (inconclusive)
O=S(=O)(Nc1cnc2ccccc2c1)c1cc(Cl)cc(Cl)c1O = > 100 µM (not active)
COc1ccc(OC)c(S(=O)(=O)Nc2ccc3ccccc3c2)c1 = > 10 µM (inconclusive)

Which IC50 is reported with Glyceraldehyde-3-phosphate dehydrogenase (Homo sapiens) for this entry: CC(C)NC(=O)c1cc(-c2ccc(Cl)cc2Cl)n[nH]1 ?
> 100 µM (not active)

* * *

target-or-test-system: Beta-galactosidase (Escherichia coli, UniProt Q8VNN2)
Sequence (Q8VNN2 whole entry): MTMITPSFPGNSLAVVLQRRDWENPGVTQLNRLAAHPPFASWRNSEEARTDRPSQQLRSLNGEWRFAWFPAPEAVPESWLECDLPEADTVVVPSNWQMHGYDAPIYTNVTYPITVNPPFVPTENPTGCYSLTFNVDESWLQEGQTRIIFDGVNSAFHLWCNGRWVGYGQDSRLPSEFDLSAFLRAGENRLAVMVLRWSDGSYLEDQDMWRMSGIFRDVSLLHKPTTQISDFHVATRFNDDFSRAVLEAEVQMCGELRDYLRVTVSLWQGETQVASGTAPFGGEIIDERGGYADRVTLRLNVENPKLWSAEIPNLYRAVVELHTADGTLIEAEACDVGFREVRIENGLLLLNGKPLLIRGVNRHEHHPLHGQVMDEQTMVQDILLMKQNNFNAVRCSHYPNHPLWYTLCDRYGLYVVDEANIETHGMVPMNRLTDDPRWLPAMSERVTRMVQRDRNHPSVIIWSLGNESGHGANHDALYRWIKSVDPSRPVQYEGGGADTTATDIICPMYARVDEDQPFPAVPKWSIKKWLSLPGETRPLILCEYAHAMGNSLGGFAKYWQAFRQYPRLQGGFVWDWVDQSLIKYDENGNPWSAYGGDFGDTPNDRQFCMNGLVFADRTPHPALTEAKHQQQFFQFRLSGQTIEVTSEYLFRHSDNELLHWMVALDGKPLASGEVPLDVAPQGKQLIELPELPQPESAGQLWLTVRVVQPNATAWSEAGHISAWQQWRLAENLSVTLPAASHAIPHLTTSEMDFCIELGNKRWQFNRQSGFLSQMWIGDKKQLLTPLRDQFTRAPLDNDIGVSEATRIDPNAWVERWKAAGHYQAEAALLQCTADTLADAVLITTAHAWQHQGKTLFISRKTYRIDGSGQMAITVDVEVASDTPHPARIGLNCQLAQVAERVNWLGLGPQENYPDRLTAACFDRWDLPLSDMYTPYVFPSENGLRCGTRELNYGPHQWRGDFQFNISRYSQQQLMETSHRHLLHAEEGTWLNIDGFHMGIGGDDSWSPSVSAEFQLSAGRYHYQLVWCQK
experiment: Dose response counterscreen for EBI2 assay utilizing the enzyme, b-galactosidase.
Type: functional
Activity calls are given as the source filed them.
readout-type: IC50

Consider the worked cases shown below.
COc1ccc(Nc2nc(-c3sc(C)nc3C)cs2)cc1 = > 80 µM (inactive)
CSc1ccc(/C=C/C(=O)c2ccc(NC(=O)Cc3ccccc3)cc2)cc1 = > 80 µM (inactive)
CCOC(=O)N1CCN(C(=O)/C=C/c2ccc(C(C)(C)C)cc2)CC1 = > 80 µM (inactive)

Read the next record carefully.
Any idea what IC50 was measured for COc1cc(-c2nc3cc(C)ccn3c2NC2CCCCC2)ccc1-c1ccc(C(C)=O)cc1 ?
118 µM (inactive)

* * *

target-or-test-system: Dual specificity tyrosine-phosphorylation-regulated kinase 1A (Rattus norvegicus)
Format: biochemical, Homo sapiens
Active and inactive are the calls of the source.
readout-type: AC50

Consider the worked cases shown below.
Oc1ccnc2ccc(Cl)cc12 = 13.6 µM (active)
O=C(Nc1nc(-c2ccc3c(c2)OCCO3)cs1)c1ccco1 = 6.45 µM (active)
CC1Cc2cc(/C=C3/SC(=S)NC3=O)ccc2O1 (stereo unspecified) = 0.308 µM (active)
CCN1CCN(Cc2ccc(NC(=O)c3ccc(C)c(NC(=O)N4CCNC4=O)c3)cc2C(F)(F)F)CC1 = 8.71 µM (active)
COc1ccc2c(Cl)c(C(=O)N/N=C3\CCCC(=O)C3)sc2c1 = 1.98 µM (active)

Read the next record carefully.
Any idea what AC50 was measured for Nc1cc2ccncc2c2ccccc12 ?
1.23 µM (active)

* * *

EC50 by entry:
experiment: Luminescence Cell-Based Dose Confirmation HTS to Identify Inhibitors of Platelet Dense Granule Release. [Related pubchem assays: 1663 (Primary HTS), 1678 (Summary of Project)]
Format: functional
The source made the active and inactive calls.

Consider the worked cases shown below.
CCOc1ccccc1-c1nc(C(N)=O)c2nc(O)n(-c3cccc(C)c3)c2n1 = > 112 µM (not active)
CCCS(=O)(=O)c1cnc(C2COc3ccccc3O2)nc1N (stereo unspecified) = 3.05 µM (active)
CC(=O)c1cccc(NC(=O)COC(=O)[C@@H](NC(=O)OCc2ccccc2)C(C)C)c1 = > 112 µM (not active)
NC(=NOC(=O)c1ccccc1Cl)c1nonc1N = 4.54 µM (active)
COC(=O)/C=C1\SC(N/N=C/c2ccc(Cl)cc2)=NC1=O = > 112 µM (not active)

Read the next record carefully.
Any idea what EC50 was measured for Cc1[nH]c2ccccc2c1C(Nc1nccs1)c1ccncc1 (stereo unspecified) ?
14.6 µM (active)

* * *

target-or-test-system: Sentrin-specific protease 8 (Homo sapiens);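 also: luminescence read-out of SENP8 inhibition, dose-response confirmation following an ultra-high-throughput screen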
Sequence (Q96LD8 whole entry): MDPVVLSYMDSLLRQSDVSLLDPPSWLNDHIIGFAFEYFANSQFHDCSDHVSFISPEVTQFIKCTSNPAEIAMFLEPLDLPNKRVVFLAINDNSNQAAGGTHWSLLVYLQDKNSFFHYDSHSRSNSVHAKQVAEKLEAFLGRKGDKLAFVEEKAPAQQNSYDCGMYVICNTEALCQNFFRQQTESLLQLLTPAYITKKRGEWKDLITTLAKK
Type: functional
Activity calls are given as the source filed them.
Tick one outcome: YES for active, NO for inactive

Here's what some known entries look like.
CC(C)(C)c1ccc(C(=O)NCCOc2ccccc2)cc1 = NO
Cc1nc(C)c(-c2csc(Nc3ncccc3C)n2)s1 = NO

Please state the recorded outcome for this compound: COc1cc(C(=O)c2nccc3cc(OC)c(OC)cc23)c([N+](=O)[O-])cc1OC
YES

Please state the recorded outcome for this compound: c1ccc2c(Nc3nnc(-c4ccncc4)s3)cccc2c1
NO

Please state the recorded outcome for this compound: O=C(Nc1cccc(Cl)c1)c1ccc(OC(=S)N2CCOCC2)cc1
NO

Please state the recorded outcome for this compound: CC1Cc2cc(/C=C3/SC(=S)NC3=O)ccc2O1 (stereo unspecified)
YES
